Source: the supplement of paper PMC11780869

Measured cleaved RNA product abundance of individual entries
Test system: Bacillus subtilis
Experiment: cleaved RNA product abundance (RNA/gDNA barcode ratio) relative to median wild-type variant (ratio to wild type); higher = more accumulation of the downstream cleavage product
Conditions: experiment (reporter, strain, medium): exp 2b: truncated aprE reporter, strain BJT200; cleavage site: cggR-gapA (positions -7 to +36 mutated)
Please give only the number in your answer, with no unit.

Past entries and their recorded results:
| POLYMER SEQUENCE | cleaved RNA product abundance |
| --- | --- |
| ACAGACGAAGGAGCCGCAAAGAAGTTATAAACGGATGAATAATCCCTCAATATAAATATCTCTCACTTATTTAAA | 0.132 |
| ACAGACGAAGGAGCCGCAAAGAAGTTATTAAGGGATGAATAATCCTCAATATAAATATCTCTCACTTATTTAAAG | 0.205 |
| ACAGACGAAGGAGCCGCAAAAAAGTTATTAAGGGATGAACAATCCCTCAATATAAATATCTCTCACTTATTTAAA | 0.87 |
| ACAGACGAAGGAGCCGCAAAGAAGTTATTAAGGGATGAATACTACCTCAATATAAATATCTCTCACTTATTTAAA | 0.124 |
| ACAGACGAAGGAGCCGCAAAGAAGTTATTAATGGATGAATAATCCTTCAATATAAATATCTCTCACTTATTTAAA | 0.212 |
| ACAGACGAAGGAGCCGCAAAGAAATTATTAAGGGATTAATAATCCCTCAATATAAATATCTCTCACTTATTTAAA | 0.978 |

Consider the record given below.
Consider the sequence ACAGACGAAGGAGCCGCAAAGAAGTTATTAAGGGATTAATAATCCTTCAATATAAATATCTCTCACTTATTTAAA and give its measured cleaved RNA product abundance.
0.431
